Biological target: platelet membrane glycoprotein (GP)IIb/IIIa on human platelets (human, UniProt P08514 32-1039; P05106 27-788)
Sequence (P08514 32-1039, chain 1 of 2): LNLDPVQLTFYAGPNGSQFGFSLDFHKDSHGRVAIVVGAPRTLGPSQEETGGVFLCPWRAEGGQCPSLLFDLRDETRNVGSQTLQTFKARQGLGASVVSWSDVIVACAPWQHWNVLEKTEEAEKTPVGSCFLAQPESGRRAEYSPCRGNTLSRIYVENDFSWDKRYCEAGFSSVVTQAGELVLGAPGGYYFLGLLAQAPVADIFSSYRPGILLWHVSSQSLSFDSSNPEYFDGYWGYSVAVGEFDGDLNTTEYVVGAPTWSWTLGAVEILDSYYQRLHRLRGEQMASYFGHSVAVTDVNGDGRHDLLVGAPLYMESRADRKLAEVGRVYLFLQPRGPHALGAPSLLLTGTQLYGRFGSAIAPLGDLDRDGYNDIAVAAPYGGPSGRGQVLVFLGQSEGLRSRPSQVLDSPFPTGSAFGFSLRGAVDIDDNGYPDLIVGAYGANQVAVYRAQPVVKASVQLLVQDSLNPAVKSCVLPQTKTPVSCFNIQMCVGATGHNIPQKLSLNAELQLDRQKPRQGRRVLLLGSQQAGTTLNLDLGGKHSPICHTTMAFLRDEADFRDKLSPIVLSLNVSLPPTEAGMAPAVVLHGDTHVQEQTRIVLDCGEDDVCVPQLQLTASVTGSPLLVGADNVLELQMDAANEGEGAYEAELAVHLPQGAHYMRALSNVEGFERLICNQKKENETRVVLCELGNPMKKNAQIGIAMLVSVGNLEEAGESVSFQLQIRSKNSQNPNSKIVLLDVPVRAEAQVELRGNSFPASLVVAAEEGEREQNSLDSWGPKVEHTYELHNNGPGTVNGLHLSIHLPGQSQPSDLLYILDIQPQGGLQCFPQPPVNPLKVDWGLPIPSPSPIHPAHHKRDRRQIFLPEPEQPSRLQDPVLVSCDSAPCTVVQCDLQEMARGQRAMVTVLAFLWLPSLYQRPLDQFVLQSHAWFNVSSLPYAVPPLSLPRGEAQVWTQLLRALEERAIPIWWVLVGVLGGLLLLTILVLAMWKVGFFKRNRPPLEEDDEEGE
Sequence (P05106 27-788, chain 2 of 2): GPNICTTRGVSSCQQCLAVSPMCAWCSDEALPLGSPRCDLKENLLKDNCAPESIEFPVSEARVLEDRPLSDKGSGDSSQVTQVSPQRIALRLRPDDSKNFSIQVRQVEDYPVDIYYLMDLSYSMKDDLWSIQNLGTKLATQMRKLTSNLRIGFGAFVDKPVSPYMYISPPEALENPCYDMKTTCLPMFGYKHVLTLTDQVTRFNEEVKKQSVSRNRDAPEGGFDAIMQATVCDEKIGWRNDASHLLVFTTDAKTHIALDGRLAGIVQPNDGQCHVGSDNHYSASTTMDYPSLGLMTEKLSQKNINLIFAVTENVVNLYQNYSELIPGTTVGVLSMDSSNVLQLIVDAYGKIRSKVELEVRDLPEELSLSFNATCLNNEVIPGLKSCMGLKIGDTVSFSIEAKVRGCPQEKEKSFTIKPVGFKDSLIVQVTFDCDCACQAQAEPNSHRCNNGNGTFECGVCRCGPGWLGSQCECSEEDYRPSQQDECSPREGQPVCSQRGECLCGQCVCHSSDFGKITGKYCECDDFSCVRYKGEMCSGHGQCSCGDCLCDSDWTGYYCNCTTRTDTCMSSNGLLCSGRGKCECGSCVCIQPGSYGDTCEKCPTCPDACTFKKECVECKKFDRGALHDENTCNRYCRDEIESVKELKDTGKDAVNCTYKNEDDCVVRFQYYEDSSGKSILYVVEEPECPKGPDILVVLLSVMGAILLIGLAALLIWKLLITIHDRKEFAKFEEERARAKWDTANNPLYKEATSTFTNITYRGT
endpoint: pIC50
Scale note: pIC50 = -log10(concentration in M).

Inquiry: Form field: reported pIC50 of contortrostatin (ligand, also called CN; homodimeric disintegrin) DAPANPCCDAATCKLTTGSQCADGLCCDQCKFMKEGTVCRRARGDDLDDYCNGISAGCPRNPFHA
Reply text: 7.60
